target of assay: CDK9/cyclin T1 (Homo sapiens, UniProt P50750)
Sequence (O60563 whole entry): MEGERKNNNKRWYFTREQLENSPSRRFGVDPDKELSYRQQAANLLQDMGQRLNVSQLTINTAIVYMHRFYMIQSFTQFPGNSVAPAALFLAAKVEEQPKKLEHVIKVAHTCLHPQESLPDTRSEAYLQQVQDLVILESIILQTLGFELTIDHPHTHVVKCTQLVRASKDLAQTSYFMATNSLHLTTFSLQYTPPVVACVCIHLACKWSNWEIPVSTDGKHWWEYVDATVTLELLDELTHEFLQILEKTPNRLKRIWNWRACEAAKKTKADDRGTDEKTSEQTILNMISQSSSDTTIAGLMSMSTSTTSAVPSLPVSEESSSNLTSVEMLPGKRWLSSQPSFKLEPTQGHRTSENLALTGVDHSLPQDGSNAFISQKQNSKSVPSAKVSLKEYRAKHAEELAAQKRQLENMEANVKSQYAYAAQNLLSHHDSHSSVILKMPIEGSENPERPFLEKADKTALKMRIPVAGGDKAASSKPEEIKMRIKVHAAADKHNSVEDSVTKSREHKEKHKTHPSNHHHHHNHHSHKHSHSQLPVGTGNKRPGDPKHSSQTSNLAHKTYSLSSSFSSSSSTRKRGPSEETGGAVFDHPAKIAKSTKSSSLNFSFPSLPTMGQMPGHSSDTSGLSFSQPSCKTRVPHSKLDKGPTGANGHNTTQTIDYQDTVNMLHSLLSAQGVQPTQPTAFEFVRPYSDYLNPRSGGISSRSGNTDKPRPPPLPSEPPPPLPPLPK
Sequence (P50750 whole entry): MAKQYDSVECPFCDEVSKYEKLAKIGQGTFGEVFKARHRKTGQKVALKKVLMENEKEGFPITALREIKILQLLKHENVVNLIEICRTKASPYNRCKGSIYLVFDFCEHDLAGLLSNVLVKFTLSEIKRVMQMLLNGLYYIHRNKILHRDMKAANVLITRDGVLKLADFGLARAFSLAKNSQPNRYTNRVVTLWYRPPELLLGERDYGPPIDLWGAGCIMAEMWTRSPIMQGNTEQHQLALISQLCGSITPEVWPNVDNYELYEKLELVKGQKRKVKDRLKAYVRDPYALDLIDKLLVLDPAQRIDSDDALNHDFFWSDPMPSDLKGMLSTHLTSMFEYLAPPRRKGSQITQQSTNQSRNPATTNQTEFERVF
experiment description: Inhibition of human recombinant CDK9/cyclin T1
endpoint: pIC50
// pIC50 is dimensionless: -log10 of concentration (M)

Query block: Give reported pIC50 for "CC[C@H](CO)Nc1nc(NCc2ccccc2)c2n[nH]c(C(C)C)c2n1" (CDK9/cyclin T1 (Homo sapiens, UniProt P50750))
Result block: 6.00

----------
Test system: RPMI-8226
experiment description: Cytotoxicity against human RPMI8226 cells after 72 hrs by fluoroskan ascent microplate reader analysis
Assay type: functional, cell-based
condition: RPMI-8226, 72 h
endpoint: IC50 (µM)
Quick note: give the figure in µM, leave out the unit.

Query block: Give the measured IC50 for "CC[C@H](CO)Nc1nc(NCc2ccccc2)c2[nH]nc(C(C)C)c2n1"
Result block: 3.6
